This collection of values is drawn from patent US9850183B2.

Molecular target: human COX-2 (Homo sapiens)
Construct: purchased Cayman Chemical Co., Ann Arbor, Mich., USA 701080
Sequence (P35354 18-604): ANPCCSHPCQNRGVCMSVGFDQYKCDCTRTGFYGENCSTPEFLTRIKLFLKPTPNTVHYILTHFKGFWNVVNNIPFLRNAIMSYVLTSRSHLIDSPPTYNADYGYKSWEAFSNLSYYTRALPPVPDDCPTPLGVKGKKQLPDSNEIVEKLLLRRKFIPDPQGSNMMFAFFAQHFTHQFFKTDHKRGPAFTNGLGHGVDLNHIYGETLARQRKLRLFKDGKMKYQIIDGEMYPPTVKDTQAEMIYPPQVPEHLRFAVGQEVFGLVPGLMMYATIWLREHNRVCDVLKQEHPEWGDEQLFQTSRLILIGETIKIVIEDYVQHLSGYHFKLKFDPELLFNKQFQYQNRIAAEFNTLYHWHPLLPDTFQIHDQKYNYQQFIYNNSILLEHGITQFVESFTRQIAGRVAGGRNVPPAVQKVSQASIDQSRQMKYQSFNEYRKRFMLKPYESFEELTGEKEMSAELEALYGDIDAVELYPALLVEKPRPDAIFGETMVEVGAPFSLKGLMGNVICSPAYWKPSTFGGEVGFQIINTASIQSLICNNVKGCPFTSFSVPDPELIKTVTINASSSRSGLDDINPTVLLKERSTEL
Test: COX-2 enzyme assay (EIA kit, PGF2α readout)
Format: biochemical
Settings: human COX-2 enzyme, EIA; 15 min pre-incubation at 37° C.; read-out: COX-2 IC50 (μM) enzyme
MEASURED METRIC: IC50 (µM)
Answer in µM, number only, no unit symbol.

COc1ccc2c(c1)c(CC(=O)NCCOCCOCC[N+]13CC[S][Re-]14(=[O])[S]CC[N]4C(=O)C3)c(C)n2C(=O)c1ccc(Cl)cc1 (stereo not drawn) [Compound 269] ... 0.5

Ask | Please list IC50 recorded for the compound COc1ccc2c(c1)c(CC(=O)NCCCCCCNC(=O)C1C[S][Re]34(=[O])[S]CC(C(=O)OC(C)C)[N]3CC[N]14)c(C)n2C(=O)c1ccc(Cl)cc1 (stereo not drawn) [Compound 185]
Reply | 1.2

Ask | Please list IC50 recorded for the compound COc1ccc2c(c1)c(CC(=O)NCCNC(=O)[c-]1cccc1)c(C)n2C(=O)c1ccc(Cl)cc1.[C-]#[O+].[C-]#[O+].[C-]#[O+].[Re+] [Compound 243]
Reply | 0.5
